tgt: Fructose-bisphosphate aldolase (Mycobacterium tuberculosis (strain ATCC 25618 / H37Rv)) (UniProt P9WQA3)
Sequence (P9WQA3 whole entry, looked up): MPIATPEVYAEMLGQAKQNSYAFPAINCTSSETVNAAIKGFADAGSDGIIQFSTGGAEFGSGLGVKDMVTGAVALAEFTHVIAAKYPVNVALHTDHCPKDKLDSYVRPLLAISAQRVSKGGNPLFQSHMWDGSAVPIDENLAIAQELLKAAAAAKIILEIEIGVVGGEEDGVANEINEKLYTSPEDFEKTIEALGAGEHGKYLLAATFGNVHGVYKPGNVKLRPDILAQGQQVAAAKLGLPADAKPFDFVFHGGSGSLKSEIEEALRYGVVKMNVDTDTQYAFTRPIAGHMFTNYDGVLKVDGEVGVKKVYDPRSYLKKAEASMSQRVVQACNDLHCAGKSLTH
experiment summary: M. tuberculosis aldolase blockers, biochemical, fluorescence, strain H37Rv, confirmation (AID 651616);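 also: 0% = vehicle wells and 100% = reference inhibitor wells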
measurement context: purified M. tuberculosis FBA, fluorescence read-out, at 1 µM
Hit rate of the full screen: of about 5,600 compounds, about 4,400 (79%) were called active. Rule as the data show it: active = inhibition above about 27%; inactive = the rest. The set was probably picked from earlier hits. The list is a sample of the results.
Bench note: report the call from Yes for active, No for inactive

**Query** Check the results log: what was the call for CN(C)CCCNC(=O)c1ccc2[nH]c3ccccc3c2c1 ?
**Result** Yes

**Query** Check the results log: what was the call for CCN1CCN(C(=O)c2cc3cc4ccc(OC)cc4nc3s2)CC1 ?
**Result** Yes

**Query** Check the results log: what was the call for CN1CCN(CCCNC(=O)c2ccc(/C=C3\Oc4ccccc4N(Cc4ccc(Cl)cc4)C3=O)cc2)CC1 ?
**Result** No

###

tgt: Fructose-bisphosphate aldolase (Mycobacterium tuberculosis (strain ATCC 25618 / H37Rv))
experiment summary: M. tuberculosis aldolase blockers, biochemical, fluorescence, strain H37Rv, confirmation (AID 651616);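 also: 0% = vehicle wells and 100% = reference inhibitor wells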
measurement context: purified M. tuberculosis FBA, fluorescence read-out, at 1 µM
Hit rate of the full screen: of about 5,600 compounds, about 4,400 (79%) were called active. Rule as the data show it: active = inhibition above about 27%; inactive = the rest. So high a share suggests a set chosen from earlier hits. A selection follows.
Bench note: report the call from 1.0 for active, 0.0 for inactive

As a guide, the following entries are already answered.
[
  {
    "compound": "CCCCn1c(-c2cccc(C)c2)nc2cc3[nH]c(=O)c(C(C)C)nc3cc21",
    "class label": 1.0
  },
  {
    "compound": "C=CCn1c(CCNC(=O)c2ccccc2F)nnc1SCC(=O)Nc1ccc(OC)cc1",
    "class label": 1.0
  },
  {
    "compound": "Cc1ccc(-c2nc(C#N)c(NCCCn3ccnc3)o2)cc1",
    "class label": 1.0
  },
  {
    "compound": "Nc1ccccc1-c1nc2ccncc2[nH]1",
    "class label": 0.0
  },
  {
    "compound": "C=CCc1c(C)nc2cc(-c3ccccc3)[nH]n2c1=O",
    "class label": 1.0
  },
  {
    "compound": "CCCCOc1ccc(-c2nnc(-c3ccco3)o2)cc1",
    "class label": 1.0
  },
  {
    "compound": "CC[C@@H]1Cc2cc(O)ccc2C2=C1c1ccc(O)cc1C[C@H]2CC",
    "class label": 1.0
  },
  {
    "compound": "Cc1cc(=O)oc2c3c(cc(OCC(=O)NCC(O)c4ccccc4)c12)OC(C)(C)CC3 (centres undefined)",
    "class label": 1.0
  },
  {
    "compound": "O=C1CC2(CCCCC2)Oc2ccc(OCC(=O)N3CCOCC3)cc21",
    "class label": 0.0
  },
  {
    "compound": "CN(C)Cc1c(O)ccc2c(=O)c(-c3ccccc3Cl)coc12",
    "class label": 0.0
  }
]

**Query** Check the results log: what was the call for Cc1ccc2nc(-c3ccco3)c(Cc3cccc(Cl)c3)n2c1 ?
**Result** 1.0

**Query** Check the results log: what was the call for CCCN(C(=O)CSc1nnc(N)s1)c1c(N)n(Cc2ccccc2)c(=O)[nH]c1=O ?
**Result** 1.0

**Query** Check the results log: what was the call for CC1(C)Cc2c(C#N)c(SCc3nc4ccccc4[nH]3)nc(N3CCOCC3)c2CO1 ?
**Result** 0.0

**Query** Check the results log: what was the call for Cc1cc(C)c2c(NC(=O)C3CC3)nn(C)c2n1 ?
**Result** 1.0

**Query** Check the results log: what was the call for Cc1nn(C)c(Oc2ccccc2)c1CCNS(=O)(=O)c1ccc(F)cc1 ?
**Result** 1.0

**Query** Check the results log: what was the call for CCOC(=O)c1c(-c2ccccc2)oc2ccc(OCC(=O)NN)cc12 ?
**Result** 1.0

**Query** Check the results log: what was the call for CCOC(=O)COc1nc(C)cc(C(F)(F)F)c1C#N ?
**Result** 1.0
